System: OVCAR-8 ovarian
Test Details: NCI tumour cell line growth inhibition, 48 h
Here the recorded TGI is given for each entry.

// known answers, use as guide
Compound: CC(=O)NC(CCCN(Cc1ccccc1)C(=O)N(C)N=O)C(=O)NCc1ccccc1 (centres undefined)
System Name: OVCAR-8 ovarian
Measured Result: > 100 µM
//
Compound: CN1CCN([C@H]2C[C@H]3[C@@H]4CC=C5C[C@@H](O)CC[C@]5(C)[C@H]4CC[C@]3(C)[C@H]2O)CC1
System Name: OVCAR-8 ovarian
Measured Result: > 57.1 µM
//
Compound: S=c1c2ccccc2c(=S)n2n1CC=CC2
System Name: OVCAR-8 ovarian
Measured Result: > 100 µM
//
Compound: Nc1nc(N)c2c(n1)NC(c1sc(Cl)nc1Cl)CC(c1ccc3c(c1)OCO3)=N2 (centres undefined)
System Name: OVCAR-8 ovarian
Measured Result: 46.9 µM
//
Compound: CC(NC(=O)C(Cc1ccc(OC(=O)c2ccccc2)cc1)NC(=O)OC(C)(C)C)C(=O)NCC(=O)NC(Cc1ccccc1)C(=O)NN (centres undefined)
System Name: OVCAR-8 ovarian
Measured Result: > 100 µM
//
Compound: Cc1c(Cl)c(C)c(Cc2c(C)c(Cl)c(C)c(Cl)c2O)c(O)c1Cl
System Name: OVCAR-8 ovarian
Measured Result: 21.6 µM
//
Compound: O=c1[nH]c2ccc([N+](=O)[O-])cc2nc1/C=C(\O)c1ccccc1
System Name: OVCAR-8 ovarian
Measured Result: 49.4 µM
//
Compound: CN(C)CCNC(=O)c1c(O)ccc2c1c1c(n2CCc2ccccc2)C(=O)c2ccccc2C1=O
System Name: OVCAR-8 ovarian
Measured Result: 23.4 µM

# ---- query compound ----
Input line: Complete the entry with TGI for NC(=O)c1ccc(N(C(N)=O)c2c(F)cccc2F)nc1-c1ccc(F)cc1F
Output line: > 100 µM
